Test system: Plasmodium berghei
Assay: Screen against P. berghei liver stage (PbLuc), transformed with Luciferase, at 10uM
Assay type: functional, HepG2
Conditions: tested at 10 uM
Out of some 69,000 compounds screened, about 8,600 (12%) showed an effect of 50% or more. For the sample, strong results were picked, then their nearest neighbours and some compounds at random.
PROPERTY_LABEL: INHIBITION
Respond with a number, then the unit of measure.

COMPOUND | INHIBITION
Cc1nc(CCC(N)=O)cc(C2CCNCC2)n1 | -10.8%
COc1cc(C)c(C)cc1S(=O)(=O)N(C)CC(=O)Nc1ccon1 | 27.4%
CCNC(=O)[C@@H]1C[C@H](N)CN1c1cc(C(F)(F)F)nc(N2CCCC2)n1 | -122%
Cc1nc(N2CCCC2)ncc1-c1cc(O)n2ncnc2n1 | 16.8%
CN(Cc1cccc(Cl)c1)S(=O)(=O)N1CCOCC1 | -14.2%

As a next step, examine the compound that follows.
Qu. I'd like to know its INHIBITION. The compound in question is N#CC1Sc2nnc(-c3ccccc3Br)n2N=C1N (stereo unspecified)
Ans. 16.2%

----------
INHIBITION reference
System: Plasmodium berghei
Test: Screen against P. berghei liver stage (PbLuc), transformed with Luciferase, at 10uM
Type: functional, HepG2
Conditions: tested at 10 uM
Out of some 69,000 compounds screened, about 8,600 (12%) showed an effect of 50% or more. The sample holds strong results, similar compounds and a random draw of the others, so the mix is not that of the screen.
Write down the numeric answer in % and omit the unit.

Here's what some known entries look like.
COMPOUND | TESTED_SYSTEM | EXPERIMENTAL_VALUE
CCn1ccnc1CN1CCN(Cc2cccc(C#N)c2)CC1 | Plasmodium berghei | 68.8
CC(C)c1noc(-c2ccc(N(C)C3CCOCC3)nc2)n1 | Plasmodium berghei | -61.1

As a next step, examine the compound that follows.
Qu. I'd like to know its INHIBITION. The compound in question is "CN(c1ccc(-c2nc(C3CC3)no2)cn1)C1CCOCC1"
Ans. -99.6

----------
System: Plasmodium berghei
Assay: Screen against P. berghei liver stage (PbLuc), transformed with Luciferase, at 10uM
Assay type: functional, HepG2
Settings: tested at 10 uM
Out of some 69,000 compounds screened, about 8,600 (12%) showed an effect of 50% or more. For the sample, strong results were picked, then their nearest neighbours and some compounds at random.
PROPERTY_LABEL: INHIBITION (%)
Write down the numeric answer in % and omit the unit.

Here's what some known entries look like.
MOLECULE | UNIT_TAG | INHIBITION
Cc1cc(C)nc(N2CCC(c3ccnc(N(C)C)n3)CC2)n1 | % | 75.9
Cn1nc(CN2CCCCC2)c2c1CN(Cc1ccoc1)C2 | % | 11.3
Cc1ccccc1CN(CCN(C)C)Cc1ccc(O)c(C(=O)O)c1 | % | 29.2

Qu. I'd like to know its INHIBITION. The molecule in question is "CC(=O)N(C)C1CCN(C(=O)c2cccc3c2ccn3C)CC1"
Ans. 9.63

Qu. I'd like to know its INHIBITION. The molecule in question is O=C(c1cc2c(s1)CCOC2)N1CCCCC1Cn1cccn1 (stereo not given)
Ans. -5.07

Qu. I'd like to know its INHIBITION. The molecule in question is CN(C)c1nccc(C2CCN(C3CCCCC3O)CC2)n1 (stereo not given)
Ans. 27.6

Qu. I'd like to know its INHIBITION. The molecule in question is "Cn1cc(Br)cc(NC(=O)Cc2cccs2)c1=O"
Ans. 53.3

Qu. I'd like to know its INHIBITION. The molecule in question is "Cc1cc(C)cc(OCC(=O)N2CCCC2)c1"
Ans. -55.3

Qu. I'd like to know its INHIBITION. The molecule in question is "CN(C)C(=O)c1cccc(C2CCN(c3ncccn3)CC2)n1"
Ans. -19.7

Qu. I'd like to know its INHIBITION. The molecule in question is O=C(c1cccc2c1OCCO2)N1CCCC1c1noc(C2CC2)n1 (stereo not given)
Ans. 2.3

Qu. I'd like to know its INHIBITION. The molecule in question is "CN(C)C1(CNc2ncc(Br)cn2)CCOCC1"
Ans. 27.8

Qu. I'd like to know its INHIBITION. The molecule in question is O=C(CN1C[C@H]2CC(OCc3ccccc3)C[C@H]2C1)N1CCOCC1 (stereo not given in full)
Ans. -2.09

Qu. I'd like to know its INHIBITION. The molecule in question is O=C(c1cc[nH]n1)N1CCCC1c1ccccn1 (stereo not given)
Ans. 13.5

Qu. I'd like to know its INHIBITION. The molecule in question is "NC(=O)c1cc(NC(=O)N2CCOCC2)ccc1F"
Ans. 33.5

----------
INHIBITION reference
Tested on: Plasmodium berghei
Assay: Screen against P. berghei liver stage (PbLuc), transformed with Luciferase, at 10uM
Assay type: functional, HepG2
Details: tested at 10 uM
Hit rate of the full screen: of about 69,000 compounds, about 8,600 (12%) showed an effect of 50% or more. Many of the other results were omitted from the sample, so strong results are more common in it than they were.
Write down the numeric answer in % and omit the unit.

COMPOUND | EXPERIMENTAL_VALUE
CCn1cc(CN2CCCN(C(=O)c3cccc(C#N)c3)CC2)cn1 | -73.1

Qu. I'd like to know its INHIBITION. The compound in question is CN(C)CC1CN(C(=O)CCc2ccccc2)Cc2nccn2C1 (stereo unspecified)
Ans. -41.8

Qu. I'd like to know its INHIBITION. The compound in question is C=c1ncsc1=C1NN=C(C2CCCN2C(=O)Cn2cccn2)O1 (stereo unspecified)
Ans. 19.24

----------
Test system: Plasmodium berghei
Assay: Screen against P. berghei liver stage (PbLuc), transformed with Luciferase, at 10uM
Type: functional, HepG2
Settings: tested at 10 uM
Out of some 69,000 compounds screened, about 8,600 (12%) showed an effect of 50% or more. The sample as a whole holds a higher share of strong results than the screen did.
PROPERTY_LABEL: INHIBITION (%)
Write down the numeric answer in % and omit the unit.

Qu. I'd like to know its INHIBITION. The compound in question is "Cc1cn2nc(N3CCCN(Cc4noc(C)n4)CC3)sc2n1"
Ans. -9.14

Qu. I'd like to know its INHIBITION. The compound in question is "COc1cc(S(=O)(=O)N2CCc3ccccc32)cc(C(=O)O)c1OC"
Ans. 48.2

----------
Test system: Plasmodium berghei
Test: Screen against P. berghei liver stage (PbLuc), transformed with Luciferase, at 10uM
Assay type: functional, HepG2
Settings: tested at 10 uM
The campaign covered roughly 69,000 compounds. About 8,600 (12%) showed an effect of 50% or more. Shown is part of a subset that was picked to be rich in strong results.
INHIBITION reference
Write down the numeric answer in % and omit the unit.

Here's what some known entries look like.
COMPOUND | EXPERIMENTAL_VALUE
OCc1csc(N2CCCC(CO)(Cc3cccc(Cl)c3)C2)n1 (configuration not stated) | -14.9
COc1cc(-c2nc3c([nH]2)CCCNC3=O)ccc1OC(C)C | -125
Cc1ccccc1C1(C(=O)NCCN2CCOCC2)CCOCC1 | -33.5
CS(=O)(=O)N1CCCC12CCCN(C(=O)c1ccc3c(c1)OCO3)C2 (configuration not stated) | -1.15
COc1cc(Cl)c(NC(=O)c2cc3c([nH]c2=O)CCCC3=O)cc1OC | 43.6
Cc1nn(C)c(C)c1C1CCCN1C(=O)CCc1ccco1 (configuration not stated) | -37.7
CC(=O)NCC1CCN(C(=O)CCOc2ccc(C(C)C)cc2)CC1 | -39.35
CS(=O)(=O)N1CCCC12CCCN(C(=O)c1ccncc1)C2 (configuration not stated) | 10.7

As a next step, examine the compound that follows.
Qu. I'd like to know its INHIBITION. The compound in question is "Cc1ccc(NC2CCN(C(=O)c3ccc(C(N)=O)s3)CC2)nn1"
Ans. 42

----------
Tested on: Plasmodium berghei
Assay: Screen against P. berghei liver stage (PbLuc), transformed with Luciferase, at 10uM
Type: functional, HepG2
Conditions: tested at 10 uM
Among all 69,000 compounds or so, about 8,600 (12%) showed an effect of 50% or more. The entries come from a sample that favours strong results as a whole.
INHIBITION reference
Write down the numeric answer in % and omit the unit.

Here's what some known entries look like.
COMPOUND | PROPERTY_LABEL | UNIT_TAG | EXPERIMENTAL_VALUE
COCCC(=O)N1CCCC(CCC(=O)Nc2ccc(Cl)cc2)C1 (stereo unspecified) | INHIBITION | % | 57.2
CN(C)c1ccccc1CN1CCCC(N2CCCC2=O)C1 (stereo unspecified) | INHIBITION | % | 51.7
CC(=O)N[C@@H]1CN(C2CCN(c3ccccc3F)CC2)C[C@H]1C(C)C | INHIBITION | % | 14.8
Cc1csc(N2CCCN(C(=O)c3ccsc3)CC2)n1 | INHIBITION | % | -36.4
NC(=O)c1cccnc1N1C[C@H]2CC[C@@H](C1)N(Cc1ccccn1)C2=O | INHIBITION | % | 43.8

Qu. I'd like to know its INHIBITION. The compound in question is "CC(C)c1nnc(NC(=O)CSCc2cc(=O)n3ccccc3n2)s1"
Ans. 38.9

Qu. I'd like to know its INHIBITION. The compound in question is CCCc1nc(C)c(CN2CC3(CCOC3)CCC2=O)s1 (stereo unspecified)
Ans. 33.7

Qu. I'd like to know its INHIBITION. The compound in question is "CO[C@@H]1CCN(Cc2c(C)noc2C)[C@@H]2CN(Cc3cccnc3)C[C@@H]21"
Ans. 22.6
